# System: SW982
# method-summary: relative viability vs DMSO control (72 h) (fraction); higher = more viable cells
# test-parameters: 1.111 µM
test-readout: relative viability

smiles-representation: NC(=O)c1cnc2[nH]ccc2c1N[C@@H]1[C@@H]2CC3C[C@H]1C[C@@](O)(C3)C2
numeric-readout: 0.934

smiles-representation: Cc1cc(Nc2ncc(Cl)c(Nc3ccccc3S(=O)(=O)C(C)C)n2)c(OC(C)C)cc1C1CCNCC1
numeric-readout: 0.64

smiles-representation: CCCCCCCCCCCCCCCCCCOP(=O)([O-])OC1CC[N+](C)(C)CC1
numeric-readout: 1.06

smiles-representation: COc1cc2ncnc(Nc3ccc(F)c(Cl)c3)c2cc1NC(=O)/C=C/CN1CCCCC1
numeric-readout: 0.606

smiles-representation: NC(=O)c1cccc2cn(-c3ccc([C@@H]4CCCNC4)cc3)nc12
numeric-readout: 0.926

smiles-representation: C=CC(=O)Nc1cccc(Nc2nc(Nc3ccc(N4CCN(C(C)=O)CC4)cc3OC)ncc2C(F)(F)F)c1
numeric-readout: 0.911

smiles-representation: CCN(c1cc(-c2ccc(CN3CCOCC3)cc2)cc(C(=O)NCc2c(C)cc(C)[nH]c2=O)c1C)C1CCOCC1
numeric-readout: 0.958

smiles-representation: COc1cc2nccc(Oc3ccc(NC(=O)NC4CC4)c(Cl)c3)c2cc1C(N)=O
numeric-readout: 0.947

smiles-representation: CO[C@H]1C[C@@H]2CC[C@@H](C)[C@@](O)(O2)C(=O)C(=O)N2CCCC[C@H]2C(=O)O[C@H]([C@H](C)C[C@@H]2CC[C@@H](O)[C@H](OC)C2)CC(=O)[C@H](C)/C=C(\C)[C@@H](O)[C@@H](OC)C(=O)[C@H](C)C[C@H](C)/C=C/C=C/C=C/1C
numeric-readout: 0.586

smiles-representation: Cc1ccc(NC(=O)c2ccc(CN3CCN(C)CC3)cc2)cc1Nc1nccc(-c2cccnc2)n1
numeric-readout: 0.983

smiles-representation: Cc1c(F)cc(C(=O)NC2CC2)cc1-c1ccc(C(=O)NCC(C)(C)C)cn1
numeric-readout: 1.06

smiles-representation: Cc1cn(-c2cc(NC(=O)c3ccc(C)c(Nc4nccc(-c5cccnc5)n4)c3)cc(C(F)(F)F)c2)cn1
numeric-readout: 0.973

====

Known relative viability of a selection of compounds
# System: SK-LMS-1
# method-summary: relative viability vs DMSO control (72 h) (fraction); higher = more viable cells
# test-parameters: 0.1235 µM

compound: COc1cc2nccc(Oc3ccc(NC(=O)C4(C(=O)Nc5ccc(F)cc5)CC4)cc3)c2cc1OC [Cabozantinib]
relative viability: 0.599
--
compound: CO[C@H]1C[C@@H]2CC[C@@H](C)[C@@](O)(O2)C(=O)C(=O)N2CCCC[C@H]2C(=O)O[C@H]([C@H](C)C[C@@H]2CC[C@@H](O)[C@H](OC)C2)CC(=O)[C@H](C)/C=C(\C)[C@@H](O)[C@@H](OC)C(=O)[C@H](C)C[C@H](C)/C=C/C=C/C=C/1C
relative viability: 0.551
--
compound: CCCS(=O)(=O)N[C@H]1C[C@@H](N(C)c2ncnc3[nH]ccc23)C1
relative viability: 0.992
--
compound: CN(C)C[C@@H]1CCn2cc(c3ccccc32)C2=C(C(=O)NC2=O)c2cn(c3ccccc23)CCO1
relative viability: 1.05
--
compound: COc1cc2c(Oc3ccc4[nH]c(C)cc4c3F)ccnc2cc1OCC1(N)CC1
relative viability: 1.04
